- Measurement Protocol: NCI Yeast Anticancer Drug Screen. Data for the cln2 rad14 strain (AID 165);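 further: 0% = growth equal to vehicle treated cultures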
- Condition Info: S. cerevisiae cln2 rad14 strain, at 50.0 µM, stronger effect = higher value
This is part of a sample that, as a whole, favours compounds with a hit. Of some 79,000 tested, about 15% had one in any assay.
Provide the recorded growth inhibition for the entries that follow.
Answers are plain numbers, in %.

Compound | growth inhibition, %
COc1ccccc1NC(=S)N/N=C/c1ccccn1 | 8.95
c1ccc(-c2nc3ccccc3o2)cc1 | 4.25
Nc1ccc(CCCCOc2ccccc2)cc1 | 98.5

Provide reported growth inhibition for each item, in the same order as listed.
1. COc1ccc(/C=N/NC(=O)C(=O)Nc2ccc(Cl)c([N+](=O)[O-])c2)cc1OC
2. CN(C)c1ccc(-c2c(C#N)c(N)[nH]c(=S)c2C#N)cc1
3. O=C(Nc1ccc(S(=O)(=O)N2CCCCC2)cc1)OC1CCCCC1
4. C/C(=N\NC(=S)N1CCCC1)c1ccc[nH]1

Data returned:
[2.85, 6.35, 23.6, -11.6]

###

- Measurement Protocol: NCI Yeast Anticancer Drug Screen. Data for the bub3 strain (AID 167)
- Condition Info: S. cerevisiae bub3 mutant strain, at 50.0 µM, stronger effect = higher value
- Method: Growth inhibition of yeast strains with defined genetic alterations is measured as a screen for potential anti-cancer activity. Selected strains with alterations in DNA damage repair or cell cycle control were exposed to compounds and growth inhibition was measured relative to vehicle treated controls. The strain used in this assay is bub3
The panel holds about 79,000 compounds, 15% with a hit somewhere; the sample as a whole holds those more often.
Measured Quantity: growth inhibition (%)
One number for each entry, in %.

Reference set (2 entries):
Compound | U | Test Result
NC(CCCCNCc1ccccc1O)C(=O)O (stereo not drawn) | % | 20.7
O=C1c2cc(CCl)sc2C(=O)c2ccsc21 | % | 87.6

# context switch: different compound, same growth inhibition
Reported growth inhibition ( "Cc1cccc(NS(=O)(=O)c2ccc3c(c2)OCCOCCOCCOCCO3)c1" ) = -11.4

###

- Measurement Protocol: NCI Yeast Anticancer Drug Screen. Data for the bub3 strain (AID 167)
- Condition Info: S. cerevisiae bub3 mutant strain, at 50.0 µM, stronger effect = higher value
About 79,000 compounds went through this panel and 15% of them were active in at least one assay; those are over-represented in the sample as a whole.
Give growth inhibition for every item shown.
Numbers only, in %.

# count of solved cases: 2
Compound | growth inhibition, %
CC(=O)Oc1cc2c(c3ccc4ccccc4c13)CCc1ccccc1-2 | 0.1
CC(C(=O)O)N(C)C(=O)OCc1ccccc1 (configuration not stated) | -11.8

Record growth inhibition per entry; entries follow.
1. COc1ccc(/C=C2/C[N+](C)(C)C/C(=C/c3ccc(OC)cc3)C2=O)cc1
2. O=C1C(OC(=O)c2ccccc2)=C(OC(=O)c2ccccc2)C(=O)C(OC(=O)c2ccccc2)=C1OC(=O)c1ccccc1
3. Nc1nc(N)c2nn(-c3ccc(C(=O)O)cc3)nc2n1

Data returned:
16.4
2.85
-11.2

Record growth inhibition for all entries; do not skip any.
1. Cc1ccccc1NC(=O)Cc1csc2[n+]1C(=O)/C(=C\c1ccc3c(c1)OCO3)S2
2. O=C(O)Cc1ccccc1[N+](=O)[O-]

Data returned:
11.2
-21.8

###

- Measurement Protocol: NCI Yeast Anticancer Drug Screen. Data for the sgs1 mgt1 strain (AID 161);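 further: 0% = growth of cultures given vehicle only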
- Condition Info: S. cerevisiae sgs1 mgt1 strain, at 50.0 µM, stronger effect = higher value
This is part of a sample that, as a whole, favours compounds with a hit. Of some 79,000 tested, about 15% had one in any assay.
Measured Quantity: growth inhibition (%)
Numbers only, in %.

Look over these answered cases.
Molecule | Test Result
CCOC(=O)C1(N)CC1 | 2.8
CC1=NNC(=O)C1 | -8.1
COC(=O)C(c1ccccc1)C(SCc1ccccc1)c1ccccc1 (stereo not drawn) | -18.9
Cc1ccc(-c2c3c(n(C4OC(CO)C(O)C(O)C4O)c(=S)c2C#N)CC(C)(C)CC3=O)cc1 (stereo not drawn) | -4.45
COc1ccc2nc(NC(=O)C(=O)C(C#N)c3ccc(CC#N)cc3)sc2c1 (stereo not drawn) | 4.5

Record growth inhibition for all entries; do not skip any.
1. Cc1sc2c(c1C)/C(=N\O)c1cccn1-2
2. CCCCCC(=O)C(C)=O
3. CN1C(=O)C(=O)OC1=C(c1ccccc1)c1ccccc1
4. CC1OCC2OC(C)OC(C(C3C(=O)CC(C)(C)CC3=O)C3C(=O)CC(C)(C)CC3=O)C2O1 (stereo not drawn)

Data returned:
34
-0.9
0.85
19.2

Hey, can you go through the list below and give me growth inhibition for every item?
1. Nc1ccc2c(c1)C(=O)c1cc(C(=O)O)ccc1-2
2. CCCCCCCCCCCC(=O)OCCS(=O)(=O)CCOC(=O)CCCCCCCCCCC
3. O=C(O)CCC(=O)NC(c1ccccc1)(c1ccccc1)c1ccccc1
4. CCOC(=O)c1cc(C)[nH]n1

Data returned:
[9.75, -1.2, -0.15, -6.75]
